FYI, the data here is from patent US20110237528A1.

Give measured IC50 for each item. Keep answers brief.
measured.target: CFTR in the CHO-CFTR cell line (Homo sapiens)
Construct: expressed in transfected cells; host or cells: CHO (CHO-CFTR cell line)
Sequence (P13569 whole entry): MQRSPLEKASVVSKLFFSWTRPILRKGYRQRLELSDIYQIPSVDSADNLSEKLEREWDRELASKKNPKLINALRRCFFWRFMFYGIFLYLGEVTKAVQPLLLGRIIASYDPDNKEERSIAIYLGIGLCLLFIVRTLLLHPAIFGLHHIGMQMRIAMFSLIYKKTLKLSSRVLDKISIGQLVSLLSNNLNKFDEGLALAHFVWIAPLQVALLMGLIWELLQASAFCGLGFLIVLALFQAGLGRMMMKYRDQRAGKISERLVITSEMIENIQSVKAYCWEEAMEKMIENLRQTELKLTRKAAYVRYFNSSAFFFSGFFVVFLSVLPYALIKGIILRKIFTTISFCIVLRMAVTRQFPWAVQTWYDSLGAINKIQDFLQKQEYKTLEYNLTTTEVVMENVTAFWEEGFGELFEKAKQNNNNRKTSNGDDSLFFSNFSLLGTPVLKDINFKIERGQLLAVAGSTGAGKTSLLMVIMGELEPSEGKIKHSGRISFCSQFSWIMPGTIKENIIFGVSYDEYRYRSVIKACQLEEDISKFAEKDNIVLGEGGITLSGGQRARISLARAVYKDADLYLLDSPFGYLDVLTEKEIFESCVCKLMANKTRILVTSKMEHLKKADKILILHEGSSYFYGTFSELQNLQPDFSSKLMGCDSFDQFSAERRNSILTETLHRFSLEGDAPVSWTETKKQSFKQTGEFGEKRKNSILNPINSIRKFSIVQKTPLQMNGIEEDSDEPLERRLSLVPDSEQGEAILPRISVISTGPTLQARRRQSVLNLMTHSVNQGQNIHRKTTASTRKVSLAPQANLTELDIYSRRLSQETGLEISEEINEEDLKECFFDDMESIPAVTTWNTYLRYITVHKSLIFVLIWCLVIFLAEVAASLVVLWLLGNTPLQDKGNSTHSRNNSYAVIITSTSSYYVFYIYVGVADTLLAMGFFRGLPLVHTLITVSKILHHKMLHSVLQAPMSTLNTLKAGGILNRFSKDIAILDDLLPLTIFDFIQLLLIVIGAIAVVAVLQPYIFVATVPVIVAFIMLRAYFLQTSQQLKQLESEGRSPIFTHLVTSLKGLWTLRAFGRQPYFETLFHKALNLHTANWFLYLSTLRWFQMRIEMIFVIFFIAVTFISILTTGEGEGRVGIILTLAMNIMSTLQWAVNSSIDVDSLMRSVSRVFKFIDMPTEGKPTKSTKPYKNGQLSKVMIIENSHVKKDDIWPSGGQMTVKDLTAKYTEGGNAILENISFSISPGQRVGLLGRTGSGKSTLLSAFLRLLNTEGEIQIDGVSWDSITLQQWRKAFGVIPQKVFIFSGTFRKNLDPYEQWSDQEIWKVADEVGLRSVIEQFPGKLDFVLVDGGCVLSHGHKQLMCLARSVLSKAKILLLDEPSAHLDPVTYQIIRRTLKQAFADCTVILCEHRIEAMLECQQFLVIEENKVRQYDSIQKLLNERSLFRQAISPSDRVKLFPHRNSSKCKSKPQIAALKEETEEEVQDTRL
measurement.description: CHO-CFTR assay (FLIPR assay, same conditions as T84 assay)
Format: cell-based
settings: average of at least 2 runs unless marked n = 1

Recorded result, Cc1noc(C)c1CCNC(=O)c1ncn(-c2cc(Cl)c(O)c(Cl)c2)n1 , IC50: ≥ 50 µM

// field: IC50; key: CON(Cc1ccc(C(C)C)cc1)C(=O)c1ncn(-c2cc(Cl)c(O)c(Cl)c2)n1 ; value = ≥ 50 µM

Entry O=C(c1ncn(-c2cc(Cl)c(O)c(Cl)c2)n1)N(Cc1ccccc1)Cc1cccc(OC(F)(F)F)c1 , IC50 reported as ≥ 50 µM

// COCCOCCOCCOCCOCCOCCOCCOCCN(Cc1ccc(C(C)(C)C)cc1)C(=O)c1ncn(-c2cc(Cl)c(O)c(Cl)c2)n1 : IC50 value = ≥ 50 µM

GET /value?item= O=C(c1ncn(-c2cc(Cl)c(O)c(Cl)c2)n1)N(Cc1ccccc1)Cc1cccc(C(F)(F)F)c1 &field=IC50 returns ≥ 50 µM

So for COCCOCCOCCOCCN(Cc1cccc(OC(F)(F)F)c1)C(=O)c1ncn(-c2cc(Cl)c(O)c(Cl)c2)n1 , the logged IC50 turned out to be ≥ 50 µM

Entry under test: COCCOCCOCCOCCN(Cc1ccc(C(C)(C)C)cc1)C(=O)c1ncn(-c2cc(Cl)c(O)c(Cl)c2)n1 . Its IC50 was ≥ 50 µM
